The measured values listed here are drawn from patent US20250243180A1.

Target: NEK7 (Homo sapiens (Human), UniProt Q8TDX7+Q96SW2)
Sequence (Q8TDX7 whole entry): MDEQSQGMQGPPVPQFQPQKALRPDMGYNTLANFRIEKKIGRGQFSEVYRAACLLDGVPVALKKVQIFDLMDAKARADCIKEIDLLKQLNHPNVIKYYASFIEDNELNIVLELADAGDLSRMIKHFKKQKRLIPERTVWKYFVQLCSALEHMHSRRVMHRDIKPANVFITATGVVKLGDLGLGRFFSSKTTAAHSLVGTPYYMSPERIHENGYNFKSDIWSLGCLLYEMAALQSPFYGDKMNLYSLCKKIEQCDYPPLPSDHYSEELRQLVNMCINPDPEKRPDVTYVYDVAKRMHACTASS
Sequence (Q96SW2 whole entry): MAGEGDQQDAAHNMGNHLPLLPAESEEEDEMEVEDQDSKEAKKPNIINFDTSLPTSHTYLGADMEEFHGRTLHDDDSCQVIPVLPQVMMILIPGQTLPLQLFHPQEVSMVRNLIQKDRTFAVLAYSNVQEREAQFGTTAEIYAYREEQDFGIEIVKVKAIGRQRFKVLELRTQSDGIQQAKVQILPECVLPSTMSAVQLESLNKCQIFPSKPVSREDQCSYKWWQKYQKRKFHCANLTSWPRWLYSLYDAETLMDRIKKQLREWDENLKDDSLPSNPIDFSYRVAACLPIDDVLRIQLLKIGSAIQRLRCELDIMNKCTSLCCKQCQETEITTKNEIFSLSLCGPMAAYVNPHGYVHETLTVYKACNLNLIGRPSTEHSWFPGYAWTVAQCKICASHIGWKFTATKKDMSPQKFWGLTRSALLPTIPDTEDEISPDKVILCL
Sequence (Q16531 2-1140 partner): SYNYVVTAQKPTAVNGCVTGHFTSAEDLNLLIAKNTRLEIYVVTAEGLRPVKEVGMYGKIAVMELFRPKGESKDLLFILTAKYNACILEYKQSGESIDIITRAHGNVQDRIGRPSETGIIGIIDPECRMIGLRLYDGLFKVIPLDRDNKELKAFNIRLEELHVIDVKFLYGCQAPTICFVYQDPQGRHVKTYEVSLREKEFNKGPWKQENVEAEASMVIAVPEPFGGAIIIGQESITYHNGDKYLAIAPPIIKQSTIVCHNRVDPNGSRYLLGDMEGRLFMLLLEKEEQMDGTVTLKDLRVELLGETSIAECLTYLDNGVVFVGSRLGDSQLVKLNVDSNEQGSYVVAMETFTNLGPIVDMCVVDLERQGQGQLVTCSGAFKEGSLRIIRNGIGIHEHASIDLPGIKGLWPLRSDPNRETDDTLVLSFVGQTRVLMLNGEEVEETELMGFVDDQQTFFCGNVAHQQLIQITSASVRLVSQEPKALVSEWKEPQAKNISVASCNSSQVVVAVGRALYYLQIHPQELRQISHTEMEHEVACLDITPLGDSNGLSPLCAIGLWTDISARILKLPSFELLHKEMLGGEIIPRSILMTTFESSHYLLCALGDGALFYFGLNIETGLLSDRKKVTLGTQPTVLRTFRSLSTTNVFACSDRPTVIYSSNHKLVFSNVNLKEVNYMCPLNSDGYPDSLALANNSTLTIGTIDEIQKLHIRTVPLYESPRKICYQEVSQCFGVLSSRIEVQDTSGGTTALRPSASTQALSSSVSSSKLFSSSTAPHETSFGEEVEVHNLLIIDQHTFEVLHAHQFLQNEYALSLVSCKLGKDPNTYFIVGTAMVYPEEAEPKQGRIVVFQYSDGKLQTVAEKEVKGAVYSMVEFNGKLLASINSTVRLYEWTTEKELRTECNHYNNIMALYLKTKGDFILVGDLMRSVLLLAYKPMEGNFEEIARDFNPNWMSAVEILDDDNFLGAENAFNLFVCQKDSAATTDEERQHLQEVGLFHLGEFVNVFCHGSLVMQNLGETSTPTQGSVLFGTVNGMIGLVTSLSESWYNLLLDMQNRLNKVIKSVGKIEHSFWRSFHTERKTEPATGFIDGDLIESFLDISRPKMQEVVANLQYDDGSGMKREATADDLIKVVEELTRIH
Assay: NEK7 NanoBiT degradation assay in Cal51 NEK7 NanoBiT cell line
Assay type: cell-based
Settings: Cal51 NEK7 NanoBiT cells, 24 hours; read-out: NEK7 NanoBiT DC50
Reported metric: DC50 (nM)

>>> df
                                   compound  measured_number
0  CC(C)(C(=O)NCc1cc(Cl)c(C2CCC(=O)NC2=O)c(Cl)c1)c1cccnn1 (centres unmarked)               61
1  CC(C)(C(=O)NCc1cc(Cl)c(C2CCC(=O)NC2=O)c(Cl)c1)c1cc(F)ccn1 (centres unmarked)               12
2  CC(C)(C(=O)NCc1cc(Cl)c(C2CCC(=O)NC2=O)c(Cl)c1)c1ccccc1 (centres unmarked)                1
3  CC(C)(C(=O)NCc1ccc(C2CCC(=O)NC2=O)c(Cl)c1)c1ccncc1 (centres unmarked)              250

I. CC(C)(C(=O)NCc1cc(Cl)c(C2CCC(=O)NC2=O)c(Cl)c1)c1ncc(C2COC2)cn1 (centres unmarked)
II. Cc1nnc(C(C)(C)C(=O)NCc2cc(Cl)c(C3CCC(=O)NC3=O)c(Cl)c2)o1 (centres unmarked)
III. Cn1ccc2cc(C(C)(C)C(=O)NCc3cc(Cl)c(C4CCC(=O)NC4=O)c(Cl)c3)ccc21 (centres unmarked)
Query: Write the entries in order, lowest recorded DC50 first. A ranking is expressed here by listing the labels in the requested order.
Response: III, II, I
(III: 4 nM, II: 50 nM, I: 95 nM)
